# Target Desc: Cytochrome P450 3A4 (Homo sapiens) (UniProt P08684)
# Sequence (P08684 whole entry, looked up): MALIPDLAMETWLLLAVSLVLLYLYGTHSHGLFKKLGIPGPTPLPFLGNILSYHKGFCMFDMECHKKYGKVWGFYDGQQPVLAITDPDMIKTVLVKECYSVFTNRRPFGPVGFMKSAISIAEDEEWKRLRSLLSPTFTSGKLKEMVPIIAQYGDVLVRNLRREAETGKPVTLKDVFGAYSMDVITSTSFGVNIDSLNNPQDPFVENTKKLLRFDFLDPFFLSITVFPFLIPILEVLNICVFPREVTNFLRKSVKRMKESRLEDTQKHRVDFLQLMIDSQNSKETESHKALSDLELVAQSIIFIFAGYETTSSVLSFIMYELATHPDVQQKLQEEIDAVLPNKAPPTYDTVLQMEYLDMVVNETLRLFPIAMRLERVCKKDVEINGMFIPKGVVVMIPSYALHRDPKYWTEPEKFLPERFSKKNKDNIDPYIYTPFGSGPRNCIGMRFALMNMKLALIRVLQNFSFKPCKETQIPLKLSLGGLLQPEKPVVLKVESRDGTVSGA
# Experiment Description: Cytochrome P450 Family 3 Subfamily A Member 4 (CYP3A4) small molecule antagonists: luciferase reporter qHTS assay (AID 1671201); note: nearly all actives have a fitted effect of over 50% in size
# Details: P450-Glo CYP3A4 enzyme, luciferin luminescence, 1 h; series mostly up to 115 µM
Inconclusive results are not listed. Calls of active or inactive are those of the source. Calls come from the whole dose curve; as a rule, active = well fitted inhibition curve with a large enough effect in the repeat runs; inconclusive = weak or mixed curves; inactive = no such curve, though single readings can be large or run the other way.
Classes used: active, inactive

molecule=Nc1ccc(F)cc1 classification=inactive
molecule="CCCCCCC(CO)CCCC (stereo not drawn)" classification=inactive
molecule="CCCCCCCCCCCCCC(=O)OCC(O)CO (stereo not drawn)" classification=inactive
molecule=CCCCCCCC/C=C\CCCCCCCC(=O)OCCO classification=active
molecule=CC1=CC[C@@]23C[C@@H]1C(C)(C)[C@@H]2CC[C@H]3C classification=active
molecule="CNC1CCCN(c2c(F)cc3c(=O)c(C(=O)O)cn(C4CC4)c3c2OC)C1 (stereo not drawn)" classification=inactive
molecule=CCCCCCCCCCCSCC(=O)O classification=inactive
molecule=CCN(CC)c1ccc(C(=C2C=CC(=[N+](CC)CC)C=C2)c2ccc(S(=O)(=O)O)cc2S(=O)(=O)[O-])cc1 classification=active
